system: NADPH oxidase 5 (Homo sapiens) (UniProt Q96PH1)
Sequence (Q96PH1 whole entry, looked up): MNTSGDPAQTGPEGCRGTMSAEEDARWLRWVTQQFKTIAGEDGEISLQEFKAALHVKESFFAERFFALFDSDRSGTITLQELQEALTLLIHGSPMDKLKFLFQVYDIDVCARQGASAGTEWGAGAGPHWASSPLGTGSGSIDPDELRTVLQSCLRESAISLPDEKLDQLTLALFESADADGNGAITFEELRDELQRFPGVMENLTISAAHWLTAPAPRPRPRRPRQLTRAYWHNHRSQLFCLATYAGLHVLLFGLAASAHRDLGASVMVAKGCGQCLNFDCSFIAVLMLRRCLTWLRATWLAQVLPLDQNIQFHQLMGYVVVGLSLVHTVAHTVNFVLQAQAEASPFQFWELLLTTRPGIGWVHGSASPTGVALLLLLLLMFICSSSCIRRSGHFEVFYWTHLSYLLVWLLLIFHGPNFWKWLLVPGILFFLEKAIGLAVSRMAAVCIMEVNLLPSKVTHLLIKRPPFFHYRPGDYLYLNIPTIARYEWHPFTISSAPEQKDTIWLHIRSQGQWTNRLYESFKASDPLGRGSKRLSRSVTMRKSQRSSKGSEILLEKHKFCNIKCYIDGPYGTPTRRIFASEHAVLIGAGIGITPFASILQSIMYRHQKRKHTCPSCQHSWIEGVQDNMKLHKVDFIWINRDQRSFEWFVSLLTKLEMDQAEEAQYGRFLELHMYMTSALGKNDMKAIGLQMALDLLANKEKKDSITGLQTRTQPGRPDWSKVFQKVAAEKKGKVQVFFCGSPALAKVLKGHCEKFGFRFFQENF
test_details: NOX5-dependent H2O2 signal modulators, primary screen, NOX inhibitor project, cell-based, HEK293-NOX5, Amplex Red fluorescence (AID 1161)
condition_label: HEK293-NOX5, ionomycin, 45 min, higher = more signal
property: z-score
Numbers only.

compound | z-score
C[C@H]1C2=C3C(CC[C@H]4C(OCc5ccc(F)cc5C(F)(F)F)OC[C@](C)([C@@H]34)N(C(=O)OC(C)(C)C)C2)C2COC(=O)OCC21 (stereo partly drawn) | -1.09

Give me z-score for each of these compounds, listed below.
1. COCCOC(=O)N1C(=O)[C@@]2(c3cc(C#CC4=CCCCC4)ccc31)[C@H](c1ccc(O)cc1)N1[C@H](c3ccccc3)[C@H](c3ccccc3)OC(=O)[C@H]1[C@@H]2C(=O)Nc1nc2ccccc2s1
2. COc1cc2c(cc1OC)CN(C(=O)[C@H]1[C@@H]3C(=O)O[C@@H](c4ccccc4)[C@@H](c4ccccc4)N3[C@@H](c3ccc(OCCO)cc3)[C@]13C(=O)Nc1ccc(C#CCCO)cc13)CC2

0.897
1.66
